Ref: the M2OR odorant receptor database

# Assay Target: UniProt Q8VGB9
# Sequence (whole entry): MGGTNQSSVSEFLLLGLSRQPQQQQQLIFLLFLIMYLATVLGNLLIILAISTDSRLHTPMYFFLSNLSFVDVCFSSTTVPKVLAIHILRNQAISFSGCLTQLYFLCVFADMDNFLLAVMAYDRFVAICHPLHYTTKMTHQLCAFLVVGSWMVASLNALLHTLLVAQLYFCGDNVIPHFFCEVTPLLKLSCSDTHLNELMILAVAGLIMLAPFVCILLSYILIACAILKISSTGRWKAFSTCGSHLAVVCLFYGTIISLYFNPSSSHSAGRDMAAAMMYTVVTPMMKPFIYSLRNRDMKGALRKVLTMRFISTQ
# Condition: stereoisomer not certain
Possible outcomes: active, inactive

Compound | Assay Target | Label
CCCCCCCCC(=O)O | UniProt Q8VGB9 | inactive
CCc1occc(=O)c1O | UniProt Q8VGB9 | inactive
COc1cc(C(=O)O)ccc1O | UniProt Q8VGB9 | inactive
O=C(OCc1ccccc1)c1ccccc1O | UniProt Q8VGB9 | inactive
O=C1Cc2ccccc2O1 | UniProt Q8VGB9 | inactive
O=C(c1ccccc1)c1ccccc1 | UniProt Q8VGB9 | inactive
CCc1ccccc1O | UniProt Q8VGB9 | inactive
CCCCCC(C)O (centres undefined) | UniProt Q8VGB9 | inactive
CCCCC(C)=O | UniProt Q8VGB9 | active
c1ccccc1 | UniProt Q8VGB9 | inactive
CCC=CCCC=CC=O | UniProt Q8VGB9 | inactive
CCCCC(=O)CC | UniProt Q8VGB9 | inactive
CCC(=O)C(=O)CC | UniProt Q8VGB9 | active
CCCCCC1=C(C)CCC1=O | UniProt Q8VGB9 | inactive
CCc1nccnc1CC | UniProt Q8VGB9 | inactive
CC(C)=CCCC(C)CCO (centres undefined) | UniProt Q8VGB9 | inactive
CCCCCC(=O)CC | UniProt Q8VGB9 | inactive
CCCCCC=O | UniProt Q8VGB9 | inactive
CCCCCCCO | UniProt Q8VGB9 | inactive
Cc1ccc(C(C)C)cc1 | UniProt Q8VGB9 | inactive
CCC(C)O (centres undefined) | UniProt Q8VGB9 | inactive
CC(CC=O)CCCC(C)(C)O (centres undefined) | UniProt Q8VGB9 | inactive
Cc1ccc(OC(=O)C(C)C)cc1 | UniProt Q8VGB9 | inactive
C=C(C)C1CCC(C)C(=O)C1 (centres undefined) | UniProt Q8VGB9 | inactive
CCCCCCCCCC=CC=O | UniProt Q8VGB9 | inactive
CNc1ccccc1C(=O)OC | UniProt Q8VGB9 | inactive
CCc1ccc(O)cc1 | UniProt Q8VGB9 | inactive
CSSSC | UniProt Q8VGB9 | inactive
CCCCCCC(C)=O | UniProt Q8VGB9 | inactive
CCCCCCCCOC=O | UniProt Q8VGB9 | inactive
CC(=O)Oc1ccccc1 | UniProt Q8VGB9 | inactive
OCCCCCCCCCO | UniProt Q8VGB9 | inactive
CCc1ncc(C)nc1CC | UniProt Q8VGB9 | inactive
CC1CCC(C(C)C)C(=O)C1 (centres undefined) | UniProt Q8VGB9 | inactive
C1CCOCC1 | UniProt Q8VGB9 | inactive
OCC=Cc1ccccc1 | UniProt Q8VGB9 | inactive
CCN(CC)CC | UniProt Q8VGB9 | inactive
CCCCCCCCO | UniProt Q8VGB9 | inactive
C=CCOC(=O)CCCCCC | UniProt Q8VGB9 | inactive

---

# Assay Target: OR1L1 (Homo sapiens) (UniProt Q8NH94)
# Sequence (Q8NH94 whole entry): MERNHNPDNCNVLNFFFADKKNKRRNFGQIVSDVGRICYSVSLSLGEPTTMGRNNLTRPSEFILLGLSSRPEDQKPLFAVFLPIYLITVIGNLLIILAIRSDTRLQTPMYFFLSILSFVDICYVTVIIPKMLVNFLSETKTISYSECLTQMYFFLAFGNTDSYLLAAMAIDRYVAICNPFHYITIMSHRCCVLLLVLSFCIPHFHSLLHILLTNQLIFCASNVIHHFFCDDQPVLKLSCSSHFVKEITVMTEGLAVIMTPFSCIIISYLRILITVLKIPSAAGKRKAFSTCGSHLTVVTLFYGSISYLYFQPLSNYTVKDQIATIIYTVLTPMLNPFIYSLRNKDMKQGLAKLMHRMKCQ
# Condition: stereoisomer not certain

Compound | odorant receptor agonist call
CC(CO)CS (centres undefined) | inactive
CCCCCCC=CCCC=O | inactive
CCCCCC(=O)C(C)C(C)=O (centres undefined) | inactive
CC(=O)c1c(C)c([N+](=O)[O-])c(C(C)(C)C)c([N+](=O)[O-])c1C | inactive

---

# Assay Target: OR11A1 (Homo sapiens) (UniProt Q9GZK7)
# Sequence (whole entry): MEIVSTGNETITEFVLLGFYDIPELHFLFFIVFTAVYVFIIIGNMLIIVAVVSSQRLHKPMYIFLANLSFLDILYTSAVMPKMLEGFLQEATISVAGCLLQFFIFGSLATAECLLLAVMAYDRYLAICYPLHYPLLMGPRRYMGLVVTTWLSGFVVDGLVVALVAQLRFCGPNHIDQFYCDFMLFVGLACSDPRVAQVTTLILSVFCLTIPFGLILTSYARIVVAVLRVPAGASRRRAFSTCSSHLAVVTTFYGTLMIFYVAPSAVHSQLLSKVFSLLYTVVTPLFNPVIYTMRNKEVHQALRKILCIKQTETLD
# Condition: stereoisomer not certain
Attribute Measured: odorant receptor agonist call

Compound | Test Result
CCCC(S)CCOC(C)=O (stereo not drawn) | inactive
CC1=C(O)C(=O)OC1C (stereo not drawn) | inactive
CC(CO)CS (stereo not drawn) | inactive

---

# Assay Target: OR1A2 (Homo sapiens) (UniProt Q9Y585)
# Sequence (whole entry): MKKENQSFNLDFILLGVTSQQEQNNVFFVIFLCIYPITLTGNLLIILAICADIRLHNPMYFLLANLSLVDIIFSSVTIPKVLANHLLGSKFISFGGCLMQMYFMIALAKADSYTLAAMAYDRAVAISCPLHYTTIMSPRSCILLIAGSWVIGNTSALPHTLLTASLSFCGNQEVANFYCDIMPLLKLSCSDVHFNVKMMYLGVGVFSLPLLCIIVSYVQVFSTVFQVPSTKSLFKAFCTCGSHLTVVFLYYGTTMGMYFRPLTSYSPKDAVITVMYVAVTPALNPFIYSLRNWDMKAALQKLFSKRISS
# Condition: stereoisomer not certain
Attribute Measured: odorant receptor agonist call

Compound | Attribute Measured | Test Result
COc1nccnc1C(C)C | odorant receptor agonist call | inactive
CCCCC(S)C(C)CO (stereo unspecified) | odorant receptor agonist call | active
CCCCCC=CC=CC=O | odorant receptor agonist call | active
CC=CC(=O)C1=C(C)CCCC1(C)C | odorant receptor agonist call | inactive
CCCCS | odorant receptor agonist call | inactive
C=CC(C)=CCC=C(C)CCC=C(C)C | odorant receptor agonist call | inactive
CC(C)=CCCC(C)CC(=O)O (stereo unspecified) | odorant receptor agonist call | inactive
Cc1cnccn1 | odorant receptor agonist call | inactive
CC(C)=CCCC(C)=CC#N | odorant receptor agonist call | inactive
CCCCCC=O | odorant receptor agonist call | inactive
COc1nccnc1CC(C)C | odorant receptor agonist call | inactive
CCCCCCCCCO | odorant receptor agonist call | inactive
C=CC(C)(O)CCC=C(C)CCC=C(C)C (stereo unspecified) | odorant receptor agonist call | active
CCCC(C)C=O (stereo unspecified) | odorant receptor agonist call | inactive
CC1CCCCCCCCCCCCC(=O)C1 (stereo unspecified) | odorant receptor agonist call | inactive
Cc1cnc(C)c(C)n1 | odorant receptor agonist call | inactive
CCCCCC(=O)C(C)C(C)=O (stereo unspecified) | odorant receptor agonist call | inactive
CC(=O)CCc1ccc(O)cc1 | odorant receptor agonist call | inactive
CC(C)C12CCC(C)(CC1)O2 | odorant receptor agonist call | inactive
C=C(C)C1CC=C(C)C(O)C1 (stereo unspecified) | odorant receptor agonist call | active
CC(=O)C=CC1C(C)=CCCC1(C)C (stereo unspecified) | odorant receptor agonist call | active

---

# Assay Target: OR52J3 (Homo sapiens)
# Condition: stereoisomer not certain

Compound | odorant receptor agonist call
CCCCC(S)C(C)CO (stereo not drawn) | inactive
CC1=NC(C)C(C)S1 (stereo not drawn) | inactive
CCC1OC(=O)C(O)=C1C (stereo not drawn) | inactive
CCC(S)C(C)CO (stereo not drawn) | inactive
CC(CO)CS (stereo not drawn) | inactive
CC1=C(O)C(=O)OC1C (stereo not drawn) | inactive
Cc1cnc(C)c(C)n1 | inactive
CCCCCC(=O)C(C)C(C)=O (stereo not drawn) | inactive

---

# Assay Target: UniProt Q8VG01
# Sequence (Q8VG01 as listed by the source): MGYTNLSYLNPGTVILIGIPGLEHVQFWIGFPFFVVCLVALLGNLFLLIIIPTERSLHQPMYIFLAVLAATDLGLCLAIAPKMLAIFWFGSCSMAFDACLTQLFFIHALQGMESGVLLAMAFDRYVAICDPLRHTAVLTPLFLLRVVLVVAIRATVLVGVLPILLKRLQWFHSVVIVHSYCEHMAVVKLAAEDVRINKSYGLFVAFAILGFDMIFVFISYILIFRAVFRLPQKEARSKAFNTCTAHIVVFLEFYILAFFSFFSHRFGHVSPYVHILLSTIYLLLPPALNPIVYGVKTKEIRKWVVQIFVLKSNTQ
# Condition: stereoisomer not certain
Possible outcomes: yes for active, no for inactive

Molecule | Label
CC(C)CS | no
CCCCCCCCC=CC=O | no
CCCCC(=O)CC | no
COc1cnccn1 | no
OCCCCCCCCCO | no
CCCCCO | no
CCCCCCCCO | no
CCCCCC(C)O (centres undefined) | no
CNc1ccccc1C(=O)OC | no
CCCCCOC(=O)CCC | no
CCCCCCC(=O)OCCCC | yes
CCCCCC=O | no
CCC(C(=O)O)c1ccccc1 (centres undefined) | no
CCOC(=O)C(C)CC (centres undefined) | no
CCCCCCO | no
CCCCCCC(=O)[O-].[H+] | yes
CCCCCCCCCO | no
O=C([O-])CCCCCCCC(=O)[O-].[H+].[H+] | no
CCCCCCC(C)O (centres undefined) | no

---

# Assay Target: OR1A1 (Homo sapiens) (UniProt Q9P1Q5)
# Sequence (Q9P1Q5 whole entry): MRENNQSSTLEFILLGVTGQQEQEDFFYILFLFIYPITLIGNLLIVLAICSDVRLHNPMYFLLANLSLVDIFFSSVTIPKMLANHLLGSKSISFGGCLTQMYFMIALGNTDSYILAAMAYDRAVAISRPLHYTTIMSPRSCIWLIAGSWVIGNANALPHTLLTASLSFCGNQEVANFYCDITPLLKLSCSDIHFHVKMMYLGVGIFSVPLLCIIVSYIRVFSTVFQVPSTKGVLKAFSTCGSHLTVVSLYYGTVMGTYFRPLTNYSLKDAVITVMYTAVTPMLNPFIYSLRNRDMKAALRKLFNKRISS
# Condition: stereoisomer not certain
Possible outcomes: yes = active, no = inactive

Compound | Label
CC(C)CCCCCCCCCCC=O | no
CC(C)C12CCC(C)(CC1)O2 | no
CC12CCC(CC1=O)C2(C)C (stereo not drawn) | no
CCC(=O)C(C)S (stereo not drawn) | no
C=C(C)c1ccc(C)cc1 | no
CCCCCC=CCCC=O | yes
CCOC(C)OCC | no
CCCCCC(C)O (stereo not drawn) | no
CCCCCCOC(C)=O | no
CC=O | no
CC(=O)OCc1ccccc1 | yes
COCCC(C)(C)S | no
CCCCCCCC=CC=CC=O | no
CCCCC(C)=O | no
Cc1c[nH]c2ccccc12 | no
CCCCC=CC=O | no
CC(C)c1ccc(C=O)cc1 | no
CCCCC(=O)CC(C)=O | yes
